FYI, the data here is from paper PMC6272622.

We begin with a simple list: items and their reported Inhibition Zone Diameter SA.
# Tested on: Staphylococcus aureus ATCC 6538
# measurement_protocol: Antimicrobial activity, agar well diffusion method
# Type: cell-based
# condition_parameters: 37 °C, 24 h
property_measured: Inhibition Zone Diameter SA (mm)

>>> reported_measurement("O=c1c(O[C@@H]2O[C@H](CO)[C@@H](O)[C@H](O)[C@H]2O)c(-c2ccc(O)c(O)c2)oc2cc(O)cc(O)c12 [Compound 5, Quercetin-3-O-β-D-glucopyranoside]")
11
>>> reported_measurement("O=c1c(O)c(-c2ccc(O)c(O)c2)oc2cc(O)cc(O)c12")
12
>>> reported_measurement("CC1(C)S[C@@H]2[C@H](NC(=O)[C@H](N)c3ccccc3)C(=O)N2[C@H]1C(=O)O [Ampicillin, reference compound]")
19
>>> reported_measurement("O=c1c(O[C@@H]2O[C@H](CO)[C@H](O)[C@H](O)[C@H]2O)c(-c2ccc(O)c(O)c2)oc2cc(O)cc(O)c12 [Compound 6, Quercetin-3-O-β-D-galactopyranoside]")
11
>>> reported_measurement("O=c1c(-c2c(O)cc(O)c3c(=O)cc(-c4ccc(O)cc4)oc23)c(-c2ccc(O)cc2)oc2cc(O)cc(O)c12")
5.5

###

# System: Escherichia coli ATCC 11229
# measurement_protocol: Antimicrobial activity, agar well diffusion method
# Assay type: cell-based
# condition_parameters: 37 °C, 24 h
property_measured: Inhibition Zone Diameter EC

>>> reported_measurement("O=c1c(O[C@@H]2O[C@H](CO)[C@@H](O)[C@H](O)[C@H]2O)c(-c2ccc(O)c(O)c2)oc2cc(O)cc(O)c12 [Compound 5, Quercetin-3-O-β-D-glucopyranoside]")
"n.e."
>>> reported_measurement("O=c1c(O)c(-c2ccc(O)c(O)c2)oc2cc(O)cc(O)c12 [Compound 2, Quercetin]")
"n.e."
>>> reported_measurement("O=c1c(-c2c(O)cc(O)c3c(=O)cc(-c4ccc(O)cc4)oc23)c(-c2ccc(O)cc2)oc2cc(O)cc(O)c12 [Compound 1, 3-8′′-Bisapigenin]")
"n.e."
